All figures here come from the nanobody polyreactivity screen of Harvey et al. (2022).

- TEST SUMMARY: yeast display, Sf9 membrane polyspecificity reagent, FACS + sequencing; frameworks hold sequencing errors
MEASUREMENT NAME: polyreactivity (PSR sort gate)

{"CHAIN SEQUENCE": "QVQLVESGGGLVQAGGSLRLSCAASGRIFAIYAMGWYRQAPGKERELVAGITYSAGSTYYADSVKGRFTISRDNAKNTVYLQMNSLKPEDTAVYYCAALEYNSHRYGYDYWGQGTQVTVSS", "VALUE OBSERVED": "low polyreactivity"}
{"CHAIN SEQUENCE": "QVQLVESGGGLVQAGGSLRLSCAASGNTFDIYAMGWYIQAPGKERELVAAISRRGGSTYYAESVKGRFTISRDNAKNTVYLQLNSLKPEDTAVYYCNTVYATRYDYWGQGTQVTVSS", "VALUE OBSERVED": "high polyreactivity"}
{"CHAIN SEQUENCE": "QVQLVESGGGLVQAGGSLRLSCAASGLTFAFNVMGWYRQAPGKERELVAAISASGASTYYADSVKGRFTISRDTAKNTVYLQMNSLKPEDTAVYYCAALGYCFSYRYDYWGQGTQVTVSS", "VALUE OBSERVED": "high polyreactivity"}
{"CHAIN SEQUENCE": "QVQLVESGGGLVQAGGSLRLSCAAAGRISYANAMGWYRQAPGKERELVASITYSAGSTYADSVKGRFTISRDNAKNTVYLQMNSLKPEDTAVYYCAKRPSQHYRSYLMDYWGQGTQVTVSS", "VALUE OBSERVED": "low polyreactivity"}
{"CHAIN SEQUENCE": "QVQLVESGGGLVQAGGSLRLSCAASGIIFRYYAMGWYRQAPGKERELVAVITRSGGSTYADSVKGRFTISRDNAKNTVYLQMNSLKPEDTAVYYCAAQWYLGYATRWRGGYWGQGTQVTVSS", "VALUE OBSERVED": "high polyreactivity"}
{"CHAIN SEQUENCE": "QVQLVESGGGLVQAGGSLRLSCAASGRTFGRNAMGWYRQAPGKERELVAAINSGGSTKYADSVKGRFTISRDNAKNTVYLQMNSLKPEDTAVYYCARRGGFSYYYWGQGTQVTVSS", "VALUE OBSERVED": "high polyreactivity"}
{"CHAIN SEQUENCE": "QVKLVESGGGLVQAGGSLRLSCSASGSIITHNTMVWYRQAPGKERELVASIDSGASTNYADSVKWRFTISRDNAKNSVYLLMNSLKPEDTAVYYCAADDANFRYRDDYWGQGTQVTVSS", "VALUE OBSERVED": "low polyreactivity"}
{"CHAIN SEQUENCE": "QVQLVESGGGLVQAGGSLRLSCAASGSIFESYVMGWYRQAPGKERELVAAISSGGSTYYADSVKGRFTISRDNAKNTVYLQMNSLKPEDTAVYYCAANYDGGYLDYEAGYRLEYDYWGQGTQVTVSS", "VALUE OBSERVED": "low polyreactivity"}

Kindly indicate its recorded polyreactivity (PSR sort gate). Item: `QVQLVESGGGLVQAGGSLSLSCAASGSTSVLNAMGWYRHAPGKERELVAALTSGVDSTYYADSVKGRFTISRDNAKNTVYLQMNSVKREDTAVYYCATVVDALDNSYKRVYLFDYWGQGTQVTVSS`
low polyreactivity

Specify measured polyreactivity (PSR sort gate) for `QVQLQVSGGGLVQAGGSLRLSCAASGSIFLTSEMGWYRQAPCKERELVAANATGTSTNYADSVKGRFTISRDNAKNTVYLQMKSLKPEDTSVYYCAAGTQAHAFVVRPIEMDYWGQGTQVTVSS` .
low polyreactivity

# return recorded polyreactivity (PSR sort gate) for entry `QVQLVESGGGLVQAGGSLRLSSAASGSTFVYNYMGWYRQAPGKERELVAAIDSGGSTYYADSVKGRFTISRDNAKNTVYLQMNSLKPEDTAVYYCAASSDSYFGYHYYYWGQGTQVTVSS`
low polyreactivity
